# Target: human Tissue Factor (TF) (human, UniProt P13726 33-295)
# Assay procedure: cell-based or functional assay
Quantity name: % GM-CSF at 2.56 nM antibody (%)
Number only, in %; omit the unit.

# query: % GM-CSF at 2.56 nM antibody of entry 43B7 (antibody, human IgG1, V domains shown) VH: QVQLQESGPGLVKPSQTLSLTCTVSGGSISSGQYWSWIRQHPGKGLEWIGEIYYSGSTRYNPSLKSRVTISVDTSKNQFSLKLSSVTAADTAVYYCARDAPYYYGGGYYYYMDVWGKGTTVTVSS VL: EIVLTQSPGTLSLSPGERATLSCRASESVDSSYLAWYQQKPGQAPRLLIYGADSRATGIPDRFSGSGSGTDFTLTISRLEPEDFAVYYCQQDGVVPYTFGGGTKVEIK
50

For 25A5 (antibody, human IgG1, V domains shown) VH: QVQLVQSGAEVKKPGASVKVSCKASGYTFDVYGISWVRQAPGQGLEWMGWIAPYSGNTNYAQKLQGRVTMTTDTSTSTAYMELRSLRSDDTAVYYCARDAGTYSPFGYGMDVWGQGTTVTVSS VL: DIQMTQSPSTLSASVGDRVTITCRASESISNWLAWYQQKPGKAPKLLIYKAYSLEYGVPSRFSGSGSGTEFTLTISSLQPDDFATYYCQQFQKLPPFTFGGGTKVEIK , what is its reported % GM-CSF at 2.56 nM antibody?
72

I would be grateful if you could share the reported % GM-CSF at 2.56 nM antibody for 54E (antibody, human IgG1, V domains shown, Human IgG1; also called antibody designated 54E) VH: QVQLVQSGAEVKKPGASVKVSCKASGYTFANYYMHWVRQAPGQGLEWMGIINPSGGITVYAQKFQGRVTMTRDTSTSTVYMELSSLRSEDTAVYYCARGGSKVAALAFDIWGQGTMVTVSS VL: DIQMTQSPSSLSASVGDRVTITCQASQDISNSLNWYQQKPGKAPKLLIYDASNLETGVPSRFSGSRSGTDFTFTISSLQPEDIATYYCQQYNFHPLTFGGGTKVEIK .
38
